Measured values drawn from a melting point compilation (Tetko et al.; mined from patent text by program, amines drawn as free bases though some values may be those of a salt) for this set.

In this section, each of the compounds is paired with its reported melting point.
Give the value in °C but do not write °C after it.

[[record]]
structure_smiles = "O=C1c2cccc(OC(F)=C(F)F)c2C(=O)N1c1ccc(OC(F)=C(F)F)cc1"
unit_spec = "°C"
value_reported = 172


# ---- query compound ----
Ask: Looking for the measured melting point of O=C(Nc1ccc2cc(CN3CCCCCC3)cnc2c1)c1ccc(-c2ccc(F)cc2)cc1 , can you help?
Result: 202

###

In this section, each of the compounds is paired with its reported melting point.

Before answering, review these 5 worked examples.
[[record]]
compound = "N=C(N)Nc1cc(C(=O)O)ccc1N1C(=O)CCC1CO (stereo unspecified)"
value_reported = "253 to 257 °C"

[[record]]
compound = "CCCc1ccc(-n2ncc(C#N)c2NC(C)=O)c(Cl)c1"
value_reported = "143 to 144 °C"

[[record]]
compound = "Nc1cccc2c3c([nH]c12)C(=O)CCC3"
value_reported = "233 to 234 °C"

[[record]]
compound = "CCC(CC)Nc1cc(C)nc2c1nc(C)n2-c1c(C)cc(C)cc1C"
value_reported = "101 to 103 °C"

[[record]]
compound = "O=C(O)CCCNC(=O)c1ccc(NC(=O)c2ccccc2O)cc1"
value_reported = "211 to 213 °C"


# ---- query compound ----
Ask: Looking for the measured melting point of O=C(O)CC(CCCCNS(=O)(=O)c1ccc(Cl)cc1)CCCc1cccnc1 (stereo unspecified) , can you help?
Result: 95 to 97 °C
